target: Polycomb protein EED (Homo sapiens)
test_protocol: Inhibition of pyrrolidine inhibitor-based oregon-green probe binding to GST-tagged EED (unknown origin) after 1 hr by assay explorer integrated LanthaScreen TR-FRET assay
pIC50: −log10 of the molar value.
Assign class by pIC50: not lower than 7 means 1.0; lower than 7 means 0.0.

structure_smiles_string: Cc1cc([C@H]2CN(Cc3c(C)cccc3F)C[C@@H]2N(C)C)ccc1C(=O)N1CCN(CCO)CC1
target: Polycomb protein EED (Homo sapiens)
assigned_category: 0.0

Exercise: Threshold query (pIC50 >= 7) on Cc1cccc(F)c1CN1C[C@H](c2ccc(N3CCN(S(=O)(=O)c4cccc(F)c4)CC3)cc2)[C@@H](N(C)C)C1
Solution: 1.0

Exercise: Check if pIC50 >= 7 (inclusive). Item: Cc1cccc(F)c1CN1C[C@H](c2ccc(N3CCN(c4nccs4)CC3)cc2)[C@@H](N(C)C)C1
Solution: 1.0

----------
target: Polycomb protein EED (Homo sapiens)
test_protocol: Inhibition of pyrrolidine inhibitor-based oregon-green probe binding to GST-tagged EED (unknown origin) after 1 hr by LanthaScreen TR-FRET assay
Assignment: determine reported pIC50 for the given compounds.
Numbers only, as −log10 of the molar value.

The following compounds have reported results that may help.
structure_smiles_string: Cc1cccc(F)c1CN1C[C@H](c2ccc(N3CCC(C#N)CC3)cc2)[C@@H](N(C)C)C1
value_reported: 6.85
//
structure_smiles_string: Cc1cccc(F)c1CN1C[C@H](c2ccc(N3CCN(S(=O)(=O)c4cccc(F)c4)CC3)cc2)[C@@H](N(C)C)C1
value_reported: 7.30
//
structure_smiles_string: CCN(CC)C(=O)c1ccc([C@H]2CN(Cc3c(C)cccc3F)C[C@@H]2N(C)C)cc1C
value_reported: 6.60

Would you mind listing pIC50 for each of the following compounds?
1. Cc1cccc(F)c1CN1C[C@H](c2ccc(N(C)C3CCN(C)CC3)cc2)[C@@H](N(C)C)C1
2. Cc1cc([C@H]2CN(Cc3c(C)cccc3F)C[C@@H]2N(C)C)ccc1C(=O)N(C)C
3. Cc1cccc(F)c1CN1C[C@H](c2ccc(N3CCC(N(C)C)CC3)cc2)[C@@H](N(C)C)C1
4. Cc1cc([C@H]2CN(Cc3c(C)cccc3F)C[C@@H]2N(C)C)ccc1C(=O)NCCN(C)C
5. Cc1cccc(F)c1CN1C[C@H](c2ccc(N3CCn4ccnc4C3)cc2)[C@@H](N(C)C)C1
6. Cc1cccc(F)c1CN1C[C@H](c2ccc(N3CCC(N4CCOCC4)CC3)cc2)[C@@H](N(C)C)C1

Solution:
1: 6.46; 2: 6.74; 3: 7.00; 4: 6.82; 5: 7.00; 6: 7.22

Okay, here is my list. What is pIC50 for each of these?
1. Cc1cc([C@H]2CN(Cc3c(C)cccc3F)C[C@@H]2N(C)C)ccc1C(=O)NCc1ccccn1
2. Cc1cc([C@H]2CN(Cc3c(C)cccc3F)C[C@@H]2N(C)C)ccc1C(=O)N1CCN(C)CC1

Solution:
1. 7.10
2. 6.32

Give pIC50 for all compounds that follow.
1. Cc1cccc(F)c1CN1C[C@H](c2ccc(N3CCN(c4nccs4)CC3)cc2)[C@@H](N(C)C)C1
2. Cc1ccc(N2CCN(c3ccc([C@H]4CN(Cc5c(C)cccc5F)C[C@@H]4N(C)C)cc3)CC2)cc1
3. CC(=O)NC1CCN(c2ccc([C@H]3CN(Cc4c(C)cccc4F)C[C@@H]3N(C)C)cc2)CC1
4. CC(=O)N[C@H]1CCN(c2ccc([C@H]3CN(Cc4c(C)cccc4F)C[C@@H]3N(C)C)cc2)C1
5. Cc1cccc(F)c1CN1C[C@H](c2ccc(N3CCN(c4ccccc4)CC3)cc2)[C@@H](N(C)C)C1

Solution:
7.40
6.66
6.80
6.62
7.05

Hey, can you go through the list below and give me pIC50 for every item?
1. Cc1cc([C@H]2CN(Cc3c(C)cccc3F)C[C@@H]2N(C)C)ccc1C(=O)N1CCN(CCO)CC1
2. Cc1ccc(S(=O)(=O)N2CCN(c3ccc([C@H]4CN(Cc5c(C)cccc5F)C[C@@H]4N(C)C)cc3)CC2)cc1
3. Cc1cccc(F)c1CN1C[C@H](c2ccc(N3CCN(c4ccncc4)CC3)cc2)[C@@H](N(C)C)C1

Solution:
[6.42, 7.10, 8.00]

----------
Hi there, I'd appreciate the recorded pIC50 for every entry that follows.
target: Polycomb protein EED (Homo sapiens, UniProt O75530)
Sequence (O75530 whole entry): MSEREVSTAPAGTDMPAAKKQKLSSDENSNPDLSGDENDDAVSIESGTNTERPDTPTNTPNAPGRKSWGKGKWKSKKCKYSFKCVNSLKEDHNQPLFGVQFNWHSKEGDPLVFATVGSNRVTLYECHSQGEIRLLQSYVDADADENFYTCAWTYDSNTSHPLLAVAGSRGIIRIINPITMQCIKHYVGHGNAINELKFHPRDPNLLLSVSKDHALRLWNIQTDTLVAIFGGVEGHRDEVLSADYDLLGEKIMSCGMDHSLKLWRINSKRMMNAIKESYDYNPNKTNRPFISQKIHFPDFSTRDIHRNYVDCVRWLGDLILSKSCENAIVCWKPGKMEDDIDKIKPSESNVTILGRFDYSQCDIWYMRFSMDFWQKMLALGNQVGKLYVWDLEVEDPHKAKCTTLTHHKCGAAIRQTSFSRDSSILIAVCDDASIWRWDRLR
test_protocol: Inhibition of pyrrolidine inhibitor-based oregon-green probe binding to GST-tagged EED (unknown origin) after 1 hr by assay explorer integrated LanthaScreen TR-FRET assay
Answers are plain numbers, as −log10 of the molar value.

The following compounds have reported results that may help.
structure_smiles_string: CCN(CC)C(=O)c1ccc([C@H]2CN(Cc3c(C)cccc3F)C[C@@H]2N(C)C)cc1C
pIC50: 7.00
--
structure_smiles_string: Cc1cc([C@H]2CN(Cc3c(C)cccc3F)C[C@@H]2N(C)C)ccc1C(=O)NCc1ccncc1
pIC50: 7.15
--
structure_smiles_string: Cc1cc([C@H]2CN(Cc3c(C)cccc3F)C[C@@H]2N(C)C)ccc1C(=O)NCCN(C)C
pIC50: 7.10

Go through the items and report each one's pIC50.
1. CC(=O)NC1CCN(c2ccc([C@H]3CN(Cc4c(C)cccc4F)C[C@@H]3N(C)C)cc2)CC1
2. Cc1cccc(F)c1CN1C[C@H](c2ccc(N(C)C3CCN(C)CC3)cc2)[C@@H](N(C)C)C1
3. Cc1cccc(F)c1CN1C[C@H](c2ccc(N3CCN(c4ccncc4)CC3)cc2)[C@@H](N(C)C)C1

Solution:
1. 7.40
2. 7.05
3. 8.00

// input: 4 compounds below; output: pIC50 for each
1. Cc1ccc(S(=O)(=O)N2CCN(c3ccc([C@H]4CN(Cc5c(C)cccc5F)C[C@@H]4N(C)C)cc3)CC2)cc1
2. CC(=O)N[C@H]1CCN(c2ccc([C@H]3CN(Cc4c(C)cccc4F)C[C@@H]3N(C)C)cc2)C1
3. Cc1cccc(F)c1CN1C[C@H](c2ccc(N3CCC(N4CCOCC4)CC3)cc2)[C@@H](N(C)C)C1
4. Cc1cc([C@H]2CN(Cc3c(C)cccc3F)C[C@@H]2N(C)C)ccc1C(=O)N(C)C

Solution:
1: 7.30; 2: 7.05; 3: 7.40; 4: 6.96

----------
target: Polycomb protein EED (Homo sapiens)
test_protocol: Inhibition of pyrrolidine inhibitor-based oregon-green probe binding to GST-tagged EED (unknown origin) after 1 hr by assay explorer integrated LanthaScreen TR-FRET assay
observed_property: IC50 (nM)
Numbers only, in nM.

Some molecules with known IC50 results, for comparison:
structure_smiles_string: Cc1cc([C@H]2CN(Cc3c(C)cccc3F)C[C@@H]2N(C)C)ccc1C(=O)Nc1cccnc1
IC50 (nM): 80

structure_smiles_string: Cc1cccc(F)c1CN1C[C@H](c2ccc(N3CCC(C#N)CC3)cc2)[C@@H](N(C)C)C1
IC50 (nM): 70

structure_smiles_string: Cc1ccc(N2CCN(c3ccc([C@H]4CN(Cc5c(C)cccc5F)C[C@@H]4N(C)C)cc3)CC2)cc1
IC50 (nM): 150

Could you report IC50 for every entry in the following list?
1. Cc1cccc(F)c1CN1C[C@H](c2ccc(N3CCC(C)CC3)cc2)[C@@H](N(C)C)C1
2. Cc1cc([C@H]2CN(Cc3c(C)cccc3F)C[C@@H]2N(C)C)ccc1C(=O)NCc1ccccn1
3. Cc1cccc(F)c1CN1C[C@H](c2ccc(N3CCN(c4ccccc4)CC3)cc2)[C@@H](N(C)C)C1
4. Cc1cc([C@H]2CN(Cc3c(C)cccc3F)C[C@@H]2N(C)C)ccc1C(=O)N1CCN(C)CC1
5. Cc1cccc(F)c1CN1C[C@H](c2ccc(N3CCn4ccnc4C3)cc2)[C@@H](N(C)C)C1
6. Cc1cccc(F)c1CN1C[C@H](c2ccc(N3CCN(c4ccccc4S(C)(=O)=O)CC3)cc2)[C@@H](N(C)C)C1

Solution:
[40, 70, 50, 260, 70, 70]

# return IC50 for each item in the list
1. Cc1cccc(F)c1CN1C[C@H](c2ccc(N3CCC(N(C)C)CC3)cc2)[C@@H](N(C)C)C1
2. CC(=O)N[C@@H]1CCN(c2ccc([C@H]3CN(Cc4c(C)cccc4F)C[C@@H]3N(C)C)cc2)C1

Solution:
[40, 160]
